Target: T1, Acro SARS-CoV-2 (COVID-19) S1 protein (SARS-CoV-2, UniProt P0DTC2 16-685)
T1 construct: also called SARS-CoV-2 S1
Assay Comment: SPR
Observed Property: pKd
In textbook form, pKd equals minus log to base ten of the concentration in mol/L.

Input line: Report pKd, nothing else, for this binder: variant 6-53 (Fc fusion) VHH: EVQLVESGGGLVQPGGSLRLSCAASGISINTNVMGWFRQAPGKEREFVAAISTGSVTIYADSVKGRFTISADNSKNTAYLQMNSLKPEDTAVYYCARVDDFGYFDLWGQGTLVTVSS
Output line: 6.85

Input line: Report pKd, nothing else, for this binder: variant 5-50 (Fc fusion) VHH: EVQLVESGGGLVQPGGSLRLSCAASGFSLDYYGMGWFRQAPGKEREFVAAITSGGTPHYADSVKGRFTISADNSKNTAYLQMNSLKPEDTAVYYCASAYNPGIGYDWGQGTLVTVSS
Output line: 7.22

Input line: Report pKd, nothing else, for this binder: variant 6-55 (Fc fusion, VHH-Fc) VHH: EVQLVESGGGLVQPGGSLRLSCAASGFTMSSSWMGWFRQAPGKEREFVARITSGGSTGYADSVKGRFTISADNSKNTAYLQMNSLKPEDTAVYYCASVDGYFDYWGQGTLVTVSS
Output line: 7.60

Input line: Report pKd, nothing else, for this binder: variant 6-99 (Fc fusion) VHH: EVQLVESGGGLVQPGGSLRLSCAASGIPFRSRTMGWFRQAPGKEREFVAGISRSGASTAYADSVKGRFTISADNSKNTAYLQMNSLKPEDTAVYYCTHANDYGDYWGQGTLVTVSS
Output line: 7.29

Others:
Input line: Report pKd, nothing else, for this binder: variant 6-60 (Fc fusion, VHH-Fc) VHH: EVQLVESGGGLVQPGGSLRLSCAASGDTYGSYWMGWFRQAPGKEREFVATISQSGAATAYADSVKGRFTISADNSKNTAYLQMNSLKPEDTAVYYCAGLLRYSGTYYDAFDVWGQGTLVTVSS
Output line: 7.70

Input line: Report pKd, nothing else, for this binder: variant 6-81 (Fc fusion) VHH: EVQLVESGGGLVQPGGSLRLSCAASGFIGNYHAMGWFRQAPGKEREFVAAVTWSGGTTNYADSVKGRFTISADNSKNTAYLQMNSLKPEDTAVYYCAREGYYYDSSGYPYYFDYWGQGTLVTVSS
Output line: 7.89

Input line: Report pKd, nothing else, for this binder: variant 5-26 (Fc fusion) VHH: EVQLVESGGGLVQPGGSLRLSCAASGRTISSYIMGWFRQAPGKERELVARIYTGGDTIYADSVKGRFTISADNSKNTAYLQMNSLKPEDTAVYYCAARTSYNGRYDYIDDYSWGQGTLVTVSS
Output line: 4.66

Input line: Report pKd, nothing else, for this binder: variant 5-47 (Fc fusion) VHH: EVQLVESGGGLVQPGGSLRLSCAASGFTFGSYDMGWFRQAPGKEREFVTAINWSGARTAYADSVKGRFTISADNSKNTAYLQMNSLKPEDTAVYYCAARSVYSYEYNWGQGTLVTVSS
Output line: 7.56
